These entries and their values trace back to ChEMBL document CHEMBL3627647.

assay: Toxicity in HEK293 cells assessed as cell survival rate up to 2 ug/ml after 24 hrs by WST-1 assay relative to control; format: cell-based; settings: human, read-out: Survival
recorded-metric: viability at 24 h

Supply viability at 24 h value. Item: `N#Cc1nccnc1S(=O)(=O)c1ccccc1`
90%
